Would you mind telling me the reported Binding Similarity score of each entry?
Target: T1, wildtype feline IL-31 protein (Feline_IL31_wildtype) (feline)
T1 construct: Full length feline IL-31 with C-terminal His tag, secreted from ExpiCHO cells; also called fIL-31
T1 chain: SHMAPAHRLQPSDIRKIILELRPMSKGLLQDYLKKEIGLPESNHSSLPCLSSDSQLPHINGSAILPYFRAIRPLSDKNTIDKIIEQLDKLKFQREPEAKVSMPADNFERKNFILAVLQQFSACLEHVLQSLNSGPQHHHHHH
Experiment: Biacore, feline IL-31 chip, mAb 100 nM, share of points within parent mean +/-3 SD
Design: key: % of mutant data points within parent mAb mean ±3 SD
I'd appreciate a reply containing only the number, no unit.

Problem: Which Binding Similarity score is listed for A45 (antibody, V domains shown) VH: QVLLVQSGAEVRTPGASVKIFCKASGYSFTSYTIHWLRQAPAQGLEWMGNINPTSGATENNQRFKDRLTLTADTSTNTAYMELSSLRSADTAMYYCARWGFKYDGEWSFDVWGAGTTVTVSS VL: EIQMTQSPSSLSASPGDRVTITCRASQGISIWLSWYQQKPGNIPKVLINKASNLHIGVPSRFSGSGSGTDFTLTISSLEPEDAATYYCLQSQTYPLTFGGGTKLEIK ?
Solution: 31.9

Problem: Then what about the binder A34 (antibody, V domains shown) VH: QVLLVQSGAEVRTPGASVKIFCKASGYSFTSYAIHWLRQAPAQGLEWMGNINPTSGYTENNQRFKDRLTLTADTSTNTAYMELSSLRSADTAMYYCARWGFKYDGEWSFDVWGAGTTVTVSS VL: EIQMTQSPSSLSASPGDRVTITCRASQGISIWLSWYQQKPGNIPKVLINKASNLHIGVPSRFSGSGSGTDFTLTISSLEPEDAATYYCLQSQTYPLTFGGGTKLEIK ?
Solution: 3.37

Problem: Then what about the binder A57 (antibody, V domains shown) VH: QVLLVQSGAEVRTPGASVKIFCKASGYSFTSYTIHWLRQAPAQGLEWMGNINPTSGYTENNQRFKDRLTLTADTSTNTAYMELSSLRSADTAMYYCARWGFKYAGEWSFDVWGAGTTVTVSS VL: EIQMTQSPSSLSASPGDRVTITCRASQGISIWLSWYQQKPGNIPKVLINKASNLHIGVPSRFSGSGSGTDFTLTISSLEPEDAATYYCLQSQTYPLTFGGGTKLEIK ?
Solution: 38.9

Problem: Then what about the binder A32 (antibody, V domains shown) VH: QVLLVQSGAEVRTPGASVKIFCKASGYSFTAYTIHWLRQAPAQGLEWMGNINPTSGYTENNQRFKDRLTLTADTSTNTAYMELSSLRSADTAMYYCARWGFKYDGEWSFDVWGAGTTVTVSS VL: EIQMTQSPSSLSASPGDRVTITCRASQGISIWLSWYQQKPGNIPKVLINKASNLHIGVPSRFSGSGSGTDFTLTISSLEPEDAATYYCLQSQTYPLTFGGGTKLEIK ?
Solution: 39.2

Problem: Then what about the binder A48 (antibody, V domains shown) VH: QVLLVQSGAEVRTPGASVKIFCKASGYSFTSYTIHWLRQAPAQGLEWMGNINPTSGYTEANQRFKDRLTLTADTSTNTAYMELSSLRSADTAMYYCARWGFKYDGEWSFDVWGAGTTVTVSS VL: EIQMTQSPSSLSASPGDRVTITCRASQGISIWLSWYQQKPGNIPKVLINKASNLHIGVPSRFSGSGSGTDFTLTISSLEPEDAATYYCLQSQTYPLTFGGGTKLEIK ?
Solution: 70.2
